- TEST_SYSTEM: h-NTPDase1 (Homo sapiens, UniProt P49961)
- Construct: made in house; host or cells: COS-7 cells, transient transfection; crude protein extract after sonication
- Sequence (P49961 whole entry): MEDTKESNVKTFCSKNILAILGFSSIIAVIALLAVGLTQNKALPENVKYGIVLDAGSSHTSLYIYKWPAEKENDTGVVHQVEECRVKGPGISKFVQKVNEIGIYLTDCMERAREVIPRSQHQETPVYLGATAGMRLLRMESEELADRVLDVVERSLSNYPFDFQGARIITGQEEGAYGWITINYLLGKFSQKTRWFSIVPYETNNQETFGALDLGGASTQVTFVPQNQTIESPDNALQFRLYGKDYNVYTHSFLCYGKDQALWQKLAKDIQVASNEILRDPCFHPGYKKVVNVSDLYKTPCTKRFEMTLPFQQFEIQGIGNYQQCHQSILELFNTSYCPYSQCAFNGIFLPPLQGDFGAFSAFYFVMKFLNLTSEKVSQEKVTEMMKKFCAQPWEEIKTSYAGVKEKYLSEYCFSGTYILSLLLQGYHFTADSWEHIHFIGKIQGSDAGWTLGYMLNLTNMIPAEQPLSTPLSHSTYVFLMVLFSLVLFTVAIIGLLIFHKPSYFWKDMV
- EXPERIMENT: h-NTPDase1 inhibition, malachite green assay
- Assay type: biochemical
- EXPERIMENTAL_PARAMETERS: human NTPDase1
QUANTITY: Ki (µM)
Write the value in µM as a bare number.

Worked set:
* Cc1ccc(C(=O)Nc2ccc(S(=O)(=O)O)c3cc(S(=O)(=O)O)cc(S(=O)(=O)O)c23)cc1NC(=O)c1cccc(NC(=O)Nc2cccc(C(=O)Nc3cc(C(=O)Nc4ccc(S(=O)(=O)O)c5cc(S(=O)(=O)O)cc(S(=O)(=O)O)c45)ccc3C)c2)c1 [Suramin, reference compound] | 2.33
* O=C1Nc2ccccc2/C1=N/NC(=S)Nc1c(F)cccc1F [8l] | 0.04

In plain terms, COc1cccc(NC(=S)N/N=C2\C(=O)Nc3ccccc32)c1 [8e] has a documented Ki of 0.15
